The origin of these recorded values is ChEMBL document CHEMBL3507680.

experiment: Human HepG2 cell viability assay in 384 well format; type: toxicity, cell-based; set-up: dose 125 nL, time 70.5 hour; concentration not given beside the values; conditions: HepG2 cells, read-out: Inhibition
Each record here notes measured cytotoxicity at 70.5 h.
Response body: numeric value in %, unit text excluded.

Reference set, count: 4
* COC(=O)N1CC[C@@]2(O)CCCC[C@H]2[C@@H]1c1ccc2c(c1)OCO2 | -4.3
* COc1ccc(CNC(=O)C2=NN(c3ccc(C)cc3)C(=O)CN2)cc1 | -5.36
* O=S(=O)(C1CC1)N1CCc2ncnc(-c3ccsc3)c2CC1 | -0.114
* Cc1cc2[nH]c(=O)oc2cc1S(=O)(=O)N1CCCC(N(C)C)CC1 (centres undefined) | -2.95

Input: Quick check: cytotoxicity at 70.5 h of CCc1nc(C)sc1CNC1CCN(Cc2ccccc2)C1 (centres undefined) ?
Output: 8.22

Input: Entry to check: CCS(=O)(=O)N1C[C@@H](Oc2ccccn2)[C@H]2OCCC[C@H]21
Output: 25.1

Input: Entry to check: COC(=O)[C@@H]1CN(S(=O)(=O)c2ccccc2)CCN1S(C)(=O)=O
Output: -7.6

Input: Entry to check: O=C(c1ccc(-c2ccccc2)[nH]c1=O)N1CCN(C2CC2)CC1
Output: -8.84

Input: Entry to check: Cc1nc(CCNC(=O)NC2CCCN(c3ncccn3)C2)cs1 (centres undefined)
Output: 23.9

Input: Entry to check: CC(C)c1noc(CCCC(=O)N2CCC(Cc3cccnc3)CC2)n1
Output: -20.7

Input: Entry to check: COc1cc(CN2CCn3c(CO)nnc3C2)ccc1OC(C)C
Output: 34.7

Input: Entry to check: CCNC(=O)N(Cc1ccoc1)C1CCCCC1
Output: -5.6

Input: Entry to check: COCCN1CCn2cc(CNC(=O)C3CCC3)nc2C1
Output: 1.63

Input: Entry to check: Cc1ccccc1OC1CCN(C(=O)CNC(=O)N(C)C)CC1
Output: -15.2

Input: Entry to check: CC1(C(=O)N2CCN(c3cnccn3)CC2)CNCCO1 (centres undefined)
Output: 28.1

Input: Entry to check: COc1cccc(-c2cc(NCC(=O)O)nc3[nH]ccc23)n1
Output: 15.1

Input: Entry to check: CCOc1ncccc1C(=O)Nc1c(C)cnn1CC1CC1
Output: -9.45

---

assay: Human HepG2 cell viability assay in 384 well format; format: toxicity, cell-based; design: dose 125 nL, time 70.5 hour; concentration not given beside the values; settings: HepG2 cells, read-out: Inhibition
PARAMETER: cytotoxicity at 70.5 h (%)
Response body: numeric value in %, unit text excluded.

Reference set, count: 4
• Cc1ccc(N2CCCC(NCC(=O)NCC3CC3)C2)nn1 (stereo not drawn) = 1.19
• Cc1cc2cc(C(=O)N3CCN(CCO)[C@@H]4CS(=O)(=O)C[C@@H]43)ccc2o1 = 19.6
• NC(=O)C1CCN(Cc2ccc(S(=O)(=O)N3CCCC3)o2)CC1 = -3.5
• CCOc1cc(CNC(=O)NC2CC=CC2)ccc1OC(F)F = -5.65

Input: Quick check: cytotoxicity at 70.5 h of O=C(CCC(=O)N1CCC(Oc2ncccc2Br)CC1)c1ccccc1 ?
Output: -9.39

Input: Entry to check: CC(C)(C)OC(=O)NC1CCCN(Cc2cccc(O)c2)C1 (stereo not drawn)
Output: -4.69

Input: Entry to check: CN(C)C(=O)[C@H]1CC[C@@H]2[C@@H](CCN2Cc2ccccn2)O1
Output: 0.127

Input: Entry to check: O=C(CN1CCOCC1CC(=O)c1ccco1)NCc1ccccn1 (stereo not drawn)
Output: 2.07

Input: Entry to check: Cc1cnc(NC(=O)c2csc(NCC(C)C)n2)s1
Output: 9.3

---

experiment: Human HepG2 cell viability assay in 384 well format; type: toxicity, cell-based; parameters: dose 125 nL, time 70.5 hour; concentration not given beside the values; conditions: HepG2 cells, read-out: Inhibition
Each record here notes measured cytotoxicity at 70.5 h.
Response body: numeric value in %, unit text excluded.

• CC(NCC(=O)Nc1ccc(N2CCCCCC2)cc1)c1cccs1 (stereo unspecified) = -8.9
• CCc1noc(CS(=O)(=O)Cc2nc(Cc3ccccc3)no2)n1 = -5.38

Input: Quick check: cytotoxicity at 70.5 h of COC(=O)c1cccc(C(=O)N(C)Cc2cccc(O)c2)c1 ?
Output: 15.5

Input: Entry to check: Cc1ccc(N2N=C(C(N)=O)S(=O)(=O)c3cccnc32)cc1
Output: -2.2

Input: Entry to check: O=C(CCn1cc(Cl)cn1)Nc1ncccn1
Output: -4.36

Input: Entry to check: Cc1cccnc1NC(=O)NCc1ccc(N2CCNC(=O)C2)cc1
Output: -10.1

---

Each record here notes measured cytotoxicity at 70.5 h.
experiment: Human HepG2 cell viability assay in 384 well format; format: toxicity, cell-based; design: dose 125 nL, time 70.5 hour; concentration not given beside the values; conditions: HepG2 cells, read-out: Inhibition
Response body: numeric value in %, unit text excluded.

Input: Quick check: cytotoxicity at 70.5 h of Cn1nccc1C(=O)N1C[C@@H]2CC[C@H](Oc3cccc(F)c3)[C@@H]2C1 ?
Output: -3.82

---

Each record here notes measured cytotoxicity at 70.5 h.
experiment: Human HepG2 cell viability assay in 384 well format; format: toxicity, cell-based; design: dose 125 nL, time 70.5 hour; concentration not given beside the values; conditions: HepG2 cells, read-out: Inhibition
Response body: numeric value in %, unit text excluded.

Reference set, count: 4
- OCCOc1cc(F)ccc1NCc1nc(-c2cccs2)no1: -10.9
- COCCn1cc(NCc2cn(C)nc2-c2ccncc2)cn1: 21.2
- OC1(CN2CCCC2)CCCN(Cc2ccc(F)cc2Cl)C1 (stereo not drawn): -7.3
- CNC1CCCN(Cc2noc(C3CC3)n2)C1 (stereo not drawn): -7.48

Input: Quick check: cytotoxicity at 70.5 h of CCC(=O)N1CCC2(CC1)COCCN2Cc1ccc(F)cc1 ?
Output: -10.7

Input: Entry to check: COc1cc(C(F)(F)F)sc1C(=O)O
Output: -6.37

Input: Entry to check: O=C(CC1CCN(CCN2CCCCC2)CC1)N1CCOCC1
Output: -9.66

Input: Entry to check: CCOc1ccc(CN(CCOC)c2nc(C)nc3oc(C)nc23)cc1
Output: -12.6

Input: Entry to check: O=C1CSC(c2ccsc2)c2c(n(C3CCCC3)[nH]c2=O)N1 (stereo not drawn)
Output: -12.7

---

assay: Human HepG2 cell viability assay in 384 well format; assay type: toxicity, cell-based; set-up: dose 125 nL, time 70.5 hour; concentration not given beside the values; settings: HepG2 cells, read-out: Inhibition
PARAMETER: cytotoxicity at 70.5 h (%)
Response body: numeric value in %, unit text excluded.

Reference set, count: 5
* COc1ncccc1-c1cc(C(N)=O)ccn1 | 19.5
* Cn1cc(CN2CC3(CCN(C(=O)c4cscn4)C3)C2)cn1 | -7.98
* COCC(=O)N1CCOC2(CCCN(c3cnccn3)C2)C1 (centres undefined) | -9.25
* O=C(Nc1cnccn1)[C@H]1C[C@H]2OCC[C@H]2N(c2ncc(F)cn2)C1 | -11.1
* CCc1ncc2c(n1)CN(CCCOc1ccc(C#N)cc1)CC2 | -0.432

Input: Quick check: cytotoxicity at 70.5 h of O=C(NCC(=O)N1CCc2ccccc2C1)c1ccoc1 ?
Output: 10.2

---

experiment: Human HepG2 cell viability assay in 384 well format; type: toxicity, cell-based; set-up: dose 125 nL, time 70.5 hour; concentration not given beside the values; settings: HepG2 cells, read-out: Inhibition
PARAMETER: cytotoxicity at 70.5 h (%)
Response body: numeric value in %, unit text excluded.

Input: Quick check: cytotoxicity at 70.5 h of CSCCC(NC(N)=O)C(=O)NCc1ccc(-n2cccn2)cc1 (stereo not drawn) ?
Output: -6.9

Input: Entry to check: Cc1cccnc1CN1CC[C@H](Oc2cccc(F)c2)[C@@](C)(O)C1
Output: -0.828

Input: Entry to check: CCN(CC)c1ccc(CNC(=O)c2cccc(C)n2)cn1
Output: 11.5

Input: Entry to check: CCCc1ccc(CN2CCC3(CCC(=O)N(CCO)C3)CC2)o1
Output: -3.93

Input: Entry to check: O=C1[C@H]2CN(Cc3ccccn3)C[C@H]2CN1c1ccsc1
Output: -6.18

Input: Entry to check: O=C([C@H]1C[C@@H]2[C@@H](C1)OCCN2CC1CC1)N1CCCC1
Output: -1.83

Input: Entry to check: Cc1nc(-c2ccccc2)sc1C(=O)NCCNc1ncccn1
Output: 1.41

Input: Entry to check: CCOCCOC(C)C(=O)NCc1cn2cc(Cl)ccc2n1 (stereo not drawn)
Output: 15.2

Input: Entry to check: O=C(N1CCCC1)N1CCCC2(CCN(c3ccsc3)C2=O)C1 (stereo not drawn)
Output: -7.85

Input: Entry to check: Cc1cnn(CC2CCCN2Cc2nnc(C3CC3)n2C)c1 (stereo not drawn)
Output: -8.67

Input: Entry to check: Cc1nnsc1CNC(=O)Nc1cccc(N2CCN(C)C2=O)c1
Output: 5.12

Input: Entry to check: O=C(NC[C@]12COC[C@H]1CN(Cc1cccs1)C2)c1ccsc1
Output: -9.66
